# Measured on: full-length WT STING (Homo sapiens, UniProt Q86WV6, H232R)
# Construct: AviTag (after gg linker) (C); HRV3C cleavage site (after gs linker) (C); HIS8 (C); made in house; host or cells: Trichoplusia ni (Hi-Five) insect cells infected with baculovirus (virus generated and amplified in Sf21 cells); used as a washed membrane preparation
# Sequence (Q86WV6 with tags, fused parts or gaps H232R): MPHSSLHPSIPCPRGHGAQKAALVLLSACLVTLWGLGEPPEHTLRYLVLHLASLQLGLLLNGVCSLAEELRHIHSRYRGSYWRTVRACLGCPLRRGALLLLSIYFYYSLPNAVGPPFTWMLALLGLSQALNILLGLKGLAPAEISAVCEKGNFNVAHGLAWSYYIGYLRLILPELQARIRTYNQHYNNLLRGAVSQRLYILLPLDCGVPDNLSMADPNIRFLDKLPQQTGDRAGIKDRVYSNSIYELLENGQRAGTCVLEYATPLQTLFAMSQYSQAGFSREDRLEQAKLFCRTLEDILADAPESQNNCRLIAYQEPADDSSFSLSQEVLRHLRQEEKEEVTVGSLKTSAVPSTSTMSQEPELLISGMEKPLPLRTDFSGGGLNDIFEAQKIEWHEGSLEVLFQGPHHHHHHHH
# Assay explanation: 3H-cGAMP filtration binding assay (WT STING)
# Cond: competition with tritiated cGAMP, WT STING membrane
Result type: EC50 (nM)

COc1cc2sc(C(=O)CCC(=O)O)cc2cc1OCCOc1ccc2sc(C(=O)CCC(=O)O)cc2c1 : 4560
COc1cc2sc(C(=O)C[C@H](C)C(=O)O)cc2c(F)c1OCCCOc1c(OC)cc2sc(C(=O)C[C@H](C)C(=O)O)cc2c1F : 1
COc1cc2sc(CC[C@H](C)C(=O)O)cc2cc1OCCCOc1c(OC)cc2sc(C(=O)C[C@H](C)C(=O)O)cc2c1F : 32
COc1cc2sc(C(=O)CCC(=O)O)cc2cc1CCCOc1c(OC)cc2sc(C(=O)[C@@H]3C[C@H]3C(=O)O)cc2c1F (relative stereo) : 9010
COc1cc2sc(C(=O)C[C@H](C)C(=O)O)cc2c(Cl)c1OCCCOc1c(O)cc2sc(C(=O)C[C@H](C)C(=O)O)cc2c1Cl : 46

[I] COc1cc2sc(CCC(C)(C)C(=O)O)cc2c(F)c1OCCCOc1c(OC)cc2sc(C(=O)CC(C)(C)C(=O)O)cc2c1F
[II] COc1cc2sc(C(=O)C[C@H](C)C(=O)O)cc2c(F)c1CCCOc1c(OC)cc2sc(C(=O)CCC(=O)O)cc2c1F
Compare the recorded EC50 of I and II ; state which is larger. Field: selected label. Fill in the label of the entry you choose. I
(I: 46 nM, II: 1 nM)

====

# Measured on: full-length HAQ STING (Homo sapiens, UniProt Q86WV6, G230A/H232R/R293Q/R71H)
# Construct: AviTag (after GG linker) (C); HRV3C cleavage site (after GS linker) (C); HIS8 (C); made in house; host or cells: Trichoplusia ni (Hi-Five) insect cells infected with baculovirus (virus generated and amplified in Sf21 cells); used as a washed membrane preparation
# Sequence (Q86WV6 with tags, fused parts or gaps R71H/G230A/H232R/R293Q): as the sequence (Q86WV6 with tags, fused parts or gaps H232R) above, with R71H, G230A, R293Q counted along it
# Assay explanation: 3H-cGAMP filtration binding assay (HAQ STING)
# Cond: competition with tritiated cGAMP, HAQ STING membrane
Result type: EC50 (nM)

COc1cc2sc(C(=O)CCC(=O)O)cc2c(F)c1OCCCOc1c(OC)cc2sc(C(=O)[C@@H]3C[C@H]3C(=O)O)cc2c1F (relative stereo) [Example 88] : 3

[I] COc1cc2sc(C(=O)C[C@H](C)C(=O)O)cc2c(F)c1OCCCC(C)Oc1c(OC)cc2sc(C(=O)C[C@H](C)C(=O)O)cc2c1F (stereo partly shown) [Example 139]
[II] COc1cc(CCCc2cc3sc(C(=O)CCC(=O)O)cc3cc2OC)c2cc(C(=O)CCC(=O)O)sc2c1 [Example 26]
Which gives the smaller EC50 number: I or II ? Field: selected label. Fill in the label of the entry you choose. I
(I: 3 nM, II: 9 nM)

[1] COc1cc2sc(C(=O)CCC(=O)O)cc2cc1CCCOc1cc2cc(C(=O)CCC(=O)O)sc2cc1OC [Example 44]
[2] CNc1cc2sc(C(=O)C[C@H](C)C(=O)O)cc2cc1OCCCOc1c(OC)cc2sc(C(=O)C[C@H](C)C(=O)O)cc2c1F [Example 157]
[3] COc1cc2sc(C(=O)CCC(=O)O)cc2cc1OCCCc1ccc2sc(C(=O)CCC(=O)O)cc2c1 [Example 6]
[4] COc1cc2sc(CCC(C)(C)C(=O)O)cc2c(F)c1OCCCOc1c(OC)cc2sc(C(=O)[C@@H]3CC[C@H]3C(=O)O)cc2c1F (relative stereo) [Example 141]
Returns the items ordered by EC50, from maximum to minimum. Answer by writing out the labels in the requested order. 3, 4, 1, 2
(3: 53 nM, 4: 24 nM, 1: 14 nM, 2: 1 nM)

====

# Measured on: full-length WT STING (Homo sapiens, UniProt Q86WV6, H232R)
# Construct: AviTag (after gg linker) (C); HRV3C cleavage site (after gs linker) (C); HIS8 (C); made in house; host or cells: Trichoplusia ni (Hi-Five) insect cells infected with baculovirus (virus generated and amplified in Sf21 cells); used as a washed membrane preparation
# Assay explanation: 3H-cGAMP filtration binding assay (WT STING)
# Cond: competition with tritiated cGAMP, WT STING membrane
Result type: EC50 (nM)

[1] COc1cc2sc(CC[C@H](C)C(=O)O)cc2c(F)c1OCCCOc1c(O)cc2sc(C(=O)C[C@H](C)C(=O)O)cc2c1Cl [Example 186]
[2] COc1cc2sc(CC[C@H](C)C(=O)O)cc2c(F)c1OCCCOc1c(OC)cc2sc(C(=O)C[C@H](C)C(=O)O)cc2c1Br [Example 148]
[3] COc1cc2sc(C(=O)C[C@H](C)C(=O)O)cc2c(F)c1CCCOc1c(OC)cc2sc(C(=O)[C@@H]3CCC3C(=O)O)cc2c1F (stereo partly shown) [Example 107]
Which order do these fall in by EC50? Give them lowest to highest. Answer by writing out the labels in the requested order. 3, 2, 1

[P] COc1cc2sc(C(=O)C[C@H](C)C(=O)O)cc2c(F)c1OCCCOc1cc2sc(C(=O)[C@@H]3CC[C@H]3C(=O)O)cc2c(F)c1OC (single isomer, unassigned) [Example 97]
[Q] COc1cc2sc(C(=O)C[C@H](C)C(=O)O)cc2c(F)c1OCCOc1c(OC)cc2sc(C(=O)C[C@H](C)C(=O)O)cc2c1F [Example 50]
[R] COc1cc2sc(C(=O)CCC(=O)O)cc2c(F)c1OCCCOc1cc2sc(C(=O)C[C@H](C)C(=O)O)cc2nc1OC [Example 168]
[S] COc1cc2cc(C(=O)C[C@H](C)C(=O)O)sc2cc1OCCCOc1c(OC)cc2sc(C(=O)[C@@H]3C[C@H]3C(=O)O)cc2c1F [Example 90]
[T] COc1cc2sc(C(=O)C[C@H](C)C(=O)O)cc2nc1OCCOc1c(OC)cc2sc(C(=O)CCC(=O)O)cc2c1F [Example 20]
Returns the items ordered by EC50, from maximum to minimum. Answer by writing out the labels in the requested order. S, R, P, T, Q

[I] COc1cc2sc(C(=O)C[C@H](C)C(=O)O)cc2cc1OCCCOc1nc2cc(C(=O)C[C@H](C)C(=O)O)sc2cc1OC [Example 58]
[II] COc1cc2sc(C(=O)C[C@H](C)C(=O)O)cc2cc1OCCCOc1ccc2sc(C(=O)CCC(=O)O)cc2c1 [Example 55]
Compare the recorded EC50 of I and II ; state which is larger. Field: selected label. Fill in the label of the entry you choose. II

====

# Measured on: full-length WT STING (Homo sapiens, UniProt Q86WV6, H232R)
# Construct: AviTag (after gg linker) (C); HRV3C cleavage site (after gs linker) (C); HIS8 (C); made in house; host or cells: Trichoplusia ni (Hi-Five) insect cells infected with baculovirus (virus generated and amplified in Sf21 cells); used as a washed membrane preparation
# Assay explanation: 3H-cGAMP filtration binding assay (WT STING)
# Cond: competition with tritiated cGAMP, WT STING membrane
Result type: EC50 (nM)

COc1cc2sc(C(=O)C[C@H](C)C(=O)O)cc2cc1OCCCOc1c(OC)cc2sc(C(=O)C[C@H](C)C(=O)NS(C)(=O)=O)cc2c1F [Example 179] : 1

[a] COc1cc2sc(C(=O)C[C@H](C)C(=O)O)cc2cc1OCCCCOc1c(OC)cc2sc(C(=O)C[C@H](C)C(=O)O)cc2c1F [Example 93]
[b] CNc1cc2sc(C(=O)C[C@H](C)C(=O)O)cc2cc1OCCCOc1c(OC)cc2sc(C(=O)C[C@H](C)C(=O)O)cc2c1F [Example 157]
[c] COc1cc2sc(C(=O)C[C@H](C)C(=O)O)cc2c(Cl)c1OCCCCOc1c(OC)cc2sc(C(=O)C[C@H](C)C(=O)O)cc2c1Cl [Example 172]
Returns the items ordered by EC50, from maximum to minimum. Answer by writing out the labels in the requested order. c, a, b
(c: 15100 nM, a: 3 nM, b: 1 nM)

====

# Measured on: full-length HAQ STING (Homo sapiens, UniProt Q86WV6, G230A/H232R/R293Q/R71H)
# Construct: AviTag (after GG linker) (C); HRV3C cleavage site (after GS linker) (C); HIS8 (C); made in house; host or cells: Trichoplusia ni (Hi-Five) insect cells infected with baculovirus (virus generated and amplified in Sf21 cells); used as a washed membrane preparation
# Assay explanation: 3H-cGAMP filtration binding assay (HAQ STING)
# Cond: competition with tritiated cGAMP, HAQ STING membrane
Result type: EC50 (nM)

[I] COc1cc2sc(C(=O)C[C@H](C)C(=O)O)cc2cc1NCCCOc1cc2cc(C(=O)C[C@H](C)C(=O)O)sc2cc1OC
[II] COc1cc2sc(C(=O)C[C@H](C)C(=O)O)cc2cc1CCCNc1cc2cc(C(=O)C[C@H](C)C(=O)O)sc2cc1OC
[III] COc1cc2sc(CC[C@H](C)C(=O)O)cc2c(F)c1OCCCOc1c(OC)cc2sc(C(=O)C[C@H](C)C(=O)O)cc2c1Cl
[IV] COc1cc2sc(C(=O)C[C@H](C)C(=O)O)cc2nc1OCCCOc1c(OC)cc2sc(C(=O)CC(C)(C)C(=O)O)cc2c1F
Which order do these fall in by EC50? Give them lowest to highest. Answer by writing out the labels in the requested order. IV, I, III, II
(IV: 1 nM, I: 4 nM, III: 18 nM, II: 33 nM)

[a] COc1cc2sc(C(=O)C[C@@H](C)C(=O)O)cc2cc1CCCOc1c(OC)cc2sc(C(=O)C[C@H](C)C(=O)O)cc2c1F
[b] COc1cc2sc(C(=O)C[C@H](C)C(=O)O)cc2cc1OCCCCCOc1c(OC)cc2sc(C(=O)C[C@H](C)C(=O)O)cc2c1F
Which gives the smaller EC50 number: a or b ? Field: selected label. Fill in the label of the entry you choose. a

Where these numbers come from: patent US10793557B2
